target: yeast cytosine deaminase (yCD) (Saccharomyces cerevisiae, UniProt Q12178, E64D); assay: radiometric 5FC deamination inhibition assay
Sequence (Q12178 6-158): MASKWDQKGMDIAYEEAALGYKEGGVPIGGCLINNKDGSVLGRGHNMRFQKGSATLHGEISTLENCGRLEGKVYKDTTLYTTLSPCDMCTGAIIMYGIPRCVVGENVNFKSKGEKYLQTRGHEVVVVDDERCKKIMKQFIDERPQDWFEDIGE
observation type: pKi
Note on pKi: it is the negative log10 of concentration, concentration in mol/L.

Problem: Let me know recorded pKi for Oc1ncc(F)cn1 , thanks.
Result: 2.97

---

observation type: Kd

Problem: GET Kd | system: UniProt:Q12178 | item: Oc1ncc(F)cn1
Result: 650 nM
